This listing pairs variants with measured yeast fitness.
B1: tRNA (parent)
chain: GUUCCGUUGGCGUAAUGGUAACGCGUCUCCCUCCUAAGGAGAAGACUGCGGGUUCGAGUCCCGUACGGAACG

Variants of: B1
Assay: yeast fitness relative to wild type (ratio to wild type); higher = fitter; tRNA-Arg(CCU), competitive growth, 37 C, YPD
This sample holds only a part of the variants without activity.

Study these solved cases before continuing.
polymer_sequence="GUUCCGUUGGUGUAAUGAUAACGCGUCUCCCUCCUAAGGACAAGACUGCGGGUUCGAGUCCCGUACGGAACG [C11U G18A G41C]" measurement_type="yeast fitness" recorded_value="≤ 0.5"
polymer_sequence="GUUCCGUUGACGUAAUGGUAACGCGUCUCUCUCCUAAGGAGAAGAAUGCGGGUUCGAGUCCCGUAUGGAACG [G10A C30U C46A C66U]" measurement_type="yeast fitness" recorded_value="≤ 0.5"
polymer_sequence="GUUCCGUUGGCGUAAUGGUAACGCGUCUCCCUCCUAAGGAGAAGACUCCGCGUUCGAGUCCCGUACGGUACG [G48C G51C A69U]" measurement_type="yeast fitness" recorded_value="≤ 0.5"
polymer_sequence="GUUCCGUUGGCGUAAUGGUAACGCGUUUCCCUCCUAAGGAGAAGACGGCAGGUUCGAGUCCCGUACGGAACG [C27U U47G G50A]" measurement_type="yeast fitness" recorded_value="≤ 0.5"
polymer_sequence="GUUCCGUUGGCGUACUGGCAGCGCGUCUCCCUCUUAAGGAGAAGACUGCGGGUUCGAGUCCCGUACGGAACG [A15C U19C A21G C34U]" measurement_type="yeast fitness" recorded_value="≤ 0.5"

I would be grateful if you could share the reported yeast fitness for GUACCGUUGGCGUAAUGGCAACGUGUCUCCCUCCUAGGGAGAAGACUGCGGGUUCGAGUGCCGUACGGAACG [U3A U19C C24U A37G C60G] . ≤ 0.5

I would be grateful if you could share the reported yeast fitness for GUUCCGUUGGGGUAAUGGUAACGCGUCUCCCUCCUAAGGAGAAGACUGCGGGUUCGUGUCCCGUACGGAACG [C11G A57U] . ≤ 0.5

I would be grateful if you could share the reported yeast fitness for GUUCCGUUGGCGUAAGGGUCACGCGUCUCCCUCCUAAGGAAAAGACUGCGGGUUUGAGUCCCGUACGGAACG [U16G A20C G41A C55U] . ≤ 0.5
